Tested on: Fibroblast
Assay: Multiplex assay against human fibroblast
Type: toxicity, cell-based
Details: 12 h, 10 µM, compound concentration 10 uM, replicate 2
Give Population Healthy Nuclei (%) for every item shown.
Give bare numbers, in %.

Use the examples below as a reference point.
Ask: I have this compound here, "N[C@](CC1c2ccccc2Oc2ccccc21)(C(=O)O)[C@H]1C[C@@H]1C(=O)O" , and I need its recorded Population Healthy Nuclei (%).
Result: 59

Ask: Entry Cc1cc(-c2ccc3c(c2)CC[C@H]3N2CC3(CCN(C(=O)Cc4cn5cc(C)sc5n4)CC3)C2)ncn1 [PF-5190457] : reported Population Healthy Nuclei (%) = ?
Result: 55

Ask: Value lookup for Population Healthy Nuclei (%); key = COc1ccc2[nH]c(I)c(CCNC(C)=O)c2c1 [IODOMELATONIN]
Result: 44

Ask: Item under review: COc1c(Nc2ccc(S(C)(=O)=O)nc2C)ncnc1OC1CCN(C(=O)OC(C)C)CC1 [ADP-597] . Reported Population Healthy Nuclei (%)?
Result: 27

Please give Population Healthy Nuclei (%) for each item listed below.
1. CC(F)(F)CN1CCOc2c(nn(-c3ccccc3Cl)c2-c2ccc(Cl)cc2)C1=O
2. Cc1nn(C)c2nc(NNC(=O)Nc3cc(Cl)nc(Cl)c3)cc(C(C)C)c12
3. COCCn1c(C)c(C)s/c1=N\C(=O)C1C(C)(C)C1(C)C

Result:
1: 53; 2: 56; 3: 40

The following compounds each have a reported value; give each one's Population Healthy Nuclei (%).
1. O=C(Nc1cc(-c2ccccc2)nn1-c1ccccc1F)c1ccc([N+](=O)[O-])cc1
2. Nc1nc(CC(=O)Nc2ccc(CCNC[C@H](O)c3ccccc3)cc2)cs1 [MIRABEGRON]

Result:
1. 47
2. 41

----------
Field: Population Healthy Nuclei (%). Provide a value for each of the molecules that follow.
System: U2OS
Assay: Multiplex assay against U2OS
Type: toxicity, cell-based
Settings: human, 12 h, 1 µM, compound concentration 1 uM, replicate 1
Answers are plain numbers, in %.

Ask: So what does the record say about Population Healthy Nuclei (%) for "COc1cc(Nc2ncc3c(n2)-c2ccc(Cl)cc2C(c2c(F)cccc2OC)=NC3)ccc1C(=O)O" ?
Result: 65

Ask: Population Healthy Nuclei (%) lookup needed for "Nc1nc(-c2ccco2)c2cnn(Cc3ccccc3F)c2n1" , thanks.
Result: 68

Respectfully, I request Population Healthy Nuclei (%) for each entry included below.
1. C[C@@H]1CC(=O)Nc2cccc(-c3ccc4c(c3)c(-c3cnn(C)c3)nn4C)c2N1
2. O=c1ccc2ccc(OCCCCN3CCN(c4cccc5sccc45)CC3)cc2[nH]1
3. CN(C)C/C=C/C(=O)Nc1ccc(C(=O)N2CCCC(Nc3ncc(Cl)c(-c4c[nH]c5ccccc45)n3)C2)cc1 (centres undefined)
4. COCCCN1CCC(NC(=O)c2cc(Cl)c(N)c3c2OCC3)CC1 [PRUCALOPRIDE]

Result:
[73, 62, 60, 63]

# per-item lookup of Population Healthy Nuclei (%); items listed below
1. C[C@H](NC(=O)CNC(=O)c1cccc(Cl)c1)c1ccccc1
2. COc1c(Nc2ccc(S(C)(=O)=O)nc2C)ncnc1OC1CCN(C(=O)OC(C)C)CC1
3. Cc1c(Cc2ccc3ccccc3n2)c2cc(F)ccc2n1CC(=O)O

Result:
[61, 68, 69]

----------
Tested on: U2OS
Assay: Multiplex assay against U2OS
Format: toxicity, cell-based
Conditions: human, 48 h, 10 µM, compound concentration 10 uM, replicate 1
quantity: Population Normal (%)
One number for each entry, in %.

Ask: What Population Normal (%) value was documented for this compound, CCCCCCNC(=O)Nc1ccc(S(=O)(=O)Nc2ccc(CCNC[C@H](O)COc3ccc(O)cc3)cc2)cc1 [L-755507] ?
Result: 97

Ask: Tell me the measured Population Normal (%) of CCn1c(-c2nc3cc(C(=O)N4CCCC(N)C4)ccc3n2C)cc2ccccc21.Cl (stereo unspecified) , please.
Result: 94

Ask: What value of Population Normal (%) has been recorded for this entry: "COCCn1c(C)c(C)s/c1=N\C(=O)C1C(C)(C)C1(C)C"
Result: 97

Ask: Can you share its Population Normal (%)? I mean this compound: CSc1nc(NC2CCCC2)c([N+](=O)[O-])c(NC2CCCC2)n1 [GS-39783]
Result: 97

Ask: What does the record list as Population Normal (%) for "COc1cc(C(=O)N2CC[C@@H](O)[C@@H](N)C2)cc2nc(-c3cc4ccccc4n3CC3CC3)n(C)c12.Cl" ?
Result: 87

Ask: Could you tell me which Population Normal (%) is on file for "N[C@](CC1c2ccccc2Oc2ccccc21)(C(=O)O)[C@H]1C[C@@H]1C(=O)O" ?
Result: 98

Ask: Would you kindly share the measured Population Normal (%) for O=C(NCCNCC(O)COc1ccc(O)cc1)N1CCOCC1.O=C(NCCNCC(O)COc1ccc(O)cc1)N1CCOCC1.O=C(O)/C=C/C(=O)O (stereo unspecified) [XAMOTEROL FUMARATE] ?
Result: 98

Ask: Value lookup for Population Normal (%); key = CN1C[C@H](C(=O)N[C@]2(C)O[C@@]3(O)[C@@H]4CCCN4C(=O)[C@H](Cc4ccccc4)N3C2=O)C[C@@H]2c3cccc4[nH]cc(c34)C[C@H]21.CS(=O)(=O)O [DIHYDROERGOTAMINE MESYLATE]
Result: 96

For every listed record, write down its Population Normal (%).
1. Cc1cc(-c2ccc3c(c2)CC[C@H]3N2CC3(CCN(C(=O)Cc4cn5cc(C)sc5n4)CC3)C2)ncn1 [PF-5190457]
2. CN1CCC(C(=O)c2cccc(NC(=O)c3c(F)cc(F)cc3F)n2)CC1
3. C[C@@H]1CC(=O)Nc2cccc(-c3ccc4c(c3)c(-c3cnn(C)c3)nn4C)c2N1
4. COc1cc2nc(N3CCN(C(=O)c4ccco4)CC3)nc(N)c2cc1OC.Cl [PRAZOSIN HYDROCHLORIDE]
5. COCCCN1CCC(NC(=O)c2cc(Cl)c(N)c3c2OCC3)CC1 [PRUCALOPRIDE]
6. O=C(O)CCC/C=C\CC1C(O)CC(O)C1/C=C/C(O)COc1cccc(Cl)c1 (stereo unspecified) [CLOPROSTENOL]
7. COc1cc2nc(N3CCN(C(=O)COc4c(OC)cccc4C(C)C)CC3)nc(N)c2cc1OC.Cl.Cl
8. CC(C)(C)c1ccc(CSc2cnn(C(C)(C)C)c(=O)c2Cl)cc1 [PYRIDABEN]

Result:
1: 96; 2: 96; 3: 96; 4: 98; 5: 98; 6: 96; 7: 68; 8: 95

----------
Tested on: HEK-293T
Assay: Multiplex assay against HEK293T
Assay type: toxicity, cell-based
Settings: human, 48 h, 10 µM, compound concentration 10 uM, replicate 1
Lab note - cut at 50% for Population Mitochondria Different-Phenotype (%): rule met if strictly below, rule not met if not.

Ask: Strictly below 50% in Population Mitochondria Different-Phenotype (%)? "C[C@H](NC(=O)CNC(=O)c1cccc(Cl)c1)c1ccccc1"
Result: rule met

Ask: Quick check: does Cc1ccc(OCC(O)C(C)NC(C)C)c2c1CCC2.Cl (stereo not given) have Population Mitochondria Different-Phenotype (%) under 50%?
Result: rule met

Ask: Hi there! Is Population Mitochondria Different-Phenotype (%) for "Cn1cc(C(=O)OCC2CCN(CCNS(C)(=O)=O)CC2)c2ccccc21" below 50%, do you know?
Result: rule met

***
Ask: hey, is Population Mitochondria Different-Phenotype (%) for "CCc1nn2c(C)cc(C)nc2c1Cc1ccc(-c2nnc(C3CCNCC3)o2)cc1" lower than 50% or not?
Result: rule not met

Ask: Threshold test, Population Mitochondria Different-Phenotype (%) < 50%: "Cc1sc2c(c1C)C(c1ccc(Cl)cc1)=N[C@H](CC(=O)OC(C)(C)C)c1nnc(C)n1-2"
Result: rule met

----------
Test system: HEK-293T
Assay: Multiplex assay against HEK293T
Assay type: toxicity, cell-based
Conditions: human, 12 h, 1 µM, compound concentration 1 uM, replicate 1
I'd be grateful if you could share measured Population Tubulin-Different-Phenotype (%) for these entries.
One number for each entry, in %.

// known answers, use as guide
Ask: Sample CN1C[C@H](C(=O)N[C@]2(C)O[C@@]3(O)[C@@H]4CCCN4C(=O)[C@H](Cc4ccccc4)N3C2=O)C[C@@H]2c3cccc4[nH]cc(c34)C[C@H]21.CS(=O)(=O)O [DIHYDROERGOTAMINE MESYLATE] — what was its Population Tubulin-Different-Phenotype (%)?
Result: 26

Ask: Dear colleague, I am looking for the recorded Population Tubulin-Different-Phenotype (%) of the following compound: O=C(NCCNCC(O)COc1ccc(O)cc1)N1CCOCC1.O=C(NCCNCC(O)COc1ccc(O)cc1)N1CCOCC1.O=C(O)/C=C/C(=O)O (configuration not stated) [XAMOTEROL FUMARATE]
Result: 26

Ask: Quick one: Population Tubulin-Different-Phenotype (%) of "CN(C)C(=O)Cn1cc(-c2ccc(-c3nnc4ccccn34)cc2)cn1" ?
Result: 32

Ask: Given the compound "Cn1cc(C(=O)OCC2CCN(CCNS(C)(=O)=O)CC2)c2ccccc21" , what is its reported Population Tubulin-Different-Phenotype (%)?
Result: 22

Ask: Would you kindly share the measured Population Tubulin-Different-Phenotype (%) for "C=CCN1C[C@H](C(=O)N(CCCN(C)C)C(=O)NCC)C[C@@H]2c3cccc4[nH]cc(c34)C[C@H]21" ?
Result: 41

Ask: I would be grateful if you could share the reported Population Tubulin-Different-Phenotype (%) for O=C(O)CCC/C=C\CC1C(O)CC(O)C1/C=C/C(O)COc1cccc(Cl)c1 (configuration not stated) .
Result: 35

--- query ---
Ask: I have this compound here, "Cc1nn(C)c2nc(NNC(=O)Nc3cc(Cl)nc(Cl)c3)cc(C(C)C)c12" , and I need its recorded Population Tubulin-Different-Phenotype (%).
Result: 26
